Target: LasR (Pseudomonas aeruginosa, UniProt P25084)
Construct: expressed in transfected cells; host or cells: Escherichia coli DH5α (pJN105L+pSC11)
Sequence (P25084 whole entry): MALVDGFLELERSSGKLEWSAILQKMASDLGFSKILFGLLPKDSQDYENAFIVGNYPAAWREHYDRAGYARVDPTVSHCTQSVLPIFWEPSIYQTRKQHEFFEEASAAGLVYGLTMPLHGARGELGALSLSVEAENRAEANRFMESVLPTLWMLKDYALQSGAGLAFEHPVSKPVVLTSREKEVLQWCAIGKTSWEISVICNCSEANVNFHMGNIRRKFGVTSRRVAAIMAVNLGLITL
Test: LasR antagonism assay, E. coli DH5α (pJN105L+pSC11) β-galactosidase reporter strain
Type: cell-based, P. aeruginosa
Details: thiolactone libraries, synthetic ligands tested at 10 μM
Classify as follows. Reported Inhib % greater than or equal to 60%: Criterion met. Reported Inhib % below: Criterion not met.

Record CCCC(=O)N[C@H]1CCSC1=O [Compound 29E] ; criterion: Inhib % no lower than 60%. Met? Criterion not met

Record O=C(Cc1ccc(Br)cc1)NC1CCSC1=O (racemic) ; criterion: Inhib % no lower than 60%. Met? Criterion met

Record CCCCCCCCCC(=O)CC(=O)NC1CCSC1=O (stereo not shown) ; criterion: Inhib % no lower than 60%. Met? Criterion not met

Record CCCCCC(=O)CC(=O)N[C@H]1CCSC1=O [Compound 24E] ; criterion: Inhib % no lower than 60%. Met? Criterion not met

Record O=C(Cc1ccc(-c2ccccc2)cc1)NC1CCSC1=O (racemic) ; criterion: Inhib % no lower than 60%. Met? Criterion not met

====

Attribute: IC50
Target: LasR (Pseudomonas aeruginosa, UniProt P25084)
Experiment: LasR antagonism assay, E. coli DH5α (pJN105L+pSC11) β-galactosidase reporter strain
Details: dose response; E. coli DH5α (pJN105L+pSC11)
Kindly answer with a numeric value in nM, unit omitted.

Look over these answered cases.
O=C(Cc1ccc(-c2ccccc2)cc1)N[C@H]1CCSC1=O [Compound 23E] : 2900
CCCCCCC(=O)N[C@H]1CCSC1=O [Compound 27E] : 790
CCCCCCCC(=O)N[C@H]1CCSC1=O [Compound 26E] : 140
O=C(Cc1ccccc1)N[C@H]1CCSC1=O [Compound 21E] : 2500
O=C(Cc1ccc(Br)cc1)N[C@H]1CCSC1=O [Compound 18E] : 400

The molecule listed as CCCCCC(=O)N[C@H]1CCSC1=O [Compound 28E] has a reported IC50 of 1100

The molecule listed as COc1ccc(CC(=O)N[C@H]2CCSC2=O)cc1 [Compound 20E] has a reported IC50 of 7200

====

Molecular target: TraR (Agrobacterium tumefaciens)
Sequence (P33905 whole entry): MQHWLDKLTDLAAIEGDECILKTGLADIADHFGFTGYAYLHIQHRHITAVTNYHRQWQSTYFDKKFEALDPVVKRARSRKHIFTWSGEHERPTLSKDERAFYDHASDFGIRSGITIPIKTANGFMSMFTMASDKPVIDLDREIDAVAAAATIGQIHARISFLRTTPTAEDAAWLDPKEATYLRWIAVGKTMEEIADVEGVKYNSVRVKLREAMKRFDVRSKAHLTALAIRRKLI
Assay: cell-based
Conditions: dose response; A. tumefaciens WCF (pCF372)
Attribute: IC50
Kindly answer with a numeric value in nM, unit omitted.

Look over these answered cases.
CCCC(=O)CC(=O)N[C@H]1CCSC1=O [Compound 30E] : 3200
CCCCCCCCCC(=O)CC(=O)N[C@H]1CCSC1=O [Compound 1E] : 1800
CCCCCCCC(=O)N[C@H]1CCSC1=O [Compound 26E] : 2800

Note: attention shifts to another entry.
The molecule listed as CCCCCCC(=O)N[C@H]1CCSC1=O [Compound 27E] has a reported IC50 of 10000

====

Molecular target: LasR (Pseudomonas aeruginosa, UniProt P25084)
Construct: expressed in transfected cells; host or cells: Escherichia coli DH5α (pJN105L+pSC11)
Assay: LasR agonism assay, E. coli DH5α (pJN105L+pSC11) β-galactosidase reporter strain
Assay type: cell-based, P. aeruginosa
Details: E. coli DH5α (pJN105L+pSC11)
measurementLabel: LasR agonism, in words

CCCCCCCCCCCC(=O)N[C@H]1CCSC1=O [Compound 25E] : strong agonists
CCCCCCCCCC(=O)CC(=O)N[C@H]1CCSC1=O : strong agonists
